- test system: VLA-4 (Homo sapiens, UniProt P05556+P13612)
- Sequence (P13612 34-1032): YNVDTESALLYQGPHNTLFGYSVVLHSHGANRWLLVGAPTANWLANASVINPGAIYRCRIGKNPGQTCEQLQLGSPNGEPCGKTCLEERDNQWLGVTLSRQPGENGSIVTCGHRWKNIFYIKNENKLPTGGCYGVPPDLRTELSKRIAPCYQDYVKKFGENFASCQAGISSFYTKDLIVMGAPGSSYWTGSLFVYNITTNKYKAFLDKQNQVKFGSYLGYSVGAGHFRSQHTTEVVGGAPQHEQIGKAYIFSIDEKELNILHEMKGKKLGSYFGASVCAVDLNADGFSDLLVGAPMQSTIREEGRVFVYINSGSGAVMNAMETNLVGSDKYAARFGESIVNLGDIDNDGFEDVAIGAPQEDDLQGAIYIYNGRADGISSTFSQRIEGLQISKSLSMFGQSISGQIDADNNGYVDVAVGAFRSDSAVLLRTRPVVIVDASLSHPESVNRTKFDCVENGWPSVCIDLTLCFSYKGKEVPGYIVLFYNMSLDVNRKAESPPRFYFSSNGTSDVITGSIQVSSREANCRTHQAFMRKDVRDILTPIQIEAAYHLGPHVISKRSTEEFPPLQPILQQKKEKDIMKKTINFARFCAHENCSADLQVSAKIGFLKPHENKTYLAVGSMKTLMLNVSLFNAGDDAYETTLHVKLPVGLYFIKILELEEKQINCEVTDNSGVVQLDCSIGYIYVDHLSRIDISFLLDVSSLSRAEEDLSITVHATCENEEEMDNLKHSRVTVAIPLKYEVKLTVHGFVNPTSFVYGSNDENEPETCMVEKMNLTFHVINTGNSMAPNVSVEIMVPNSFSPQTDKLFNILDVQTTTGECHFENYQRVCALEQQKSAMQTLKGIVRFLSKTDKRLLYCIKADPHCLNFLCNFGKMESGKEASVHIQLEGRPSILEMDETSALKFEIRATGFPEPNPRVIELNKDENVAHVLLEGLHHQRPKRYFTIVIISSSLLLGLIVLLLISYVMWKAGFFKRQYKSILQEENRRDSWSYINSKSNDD
- Sequence (P05556 21-798): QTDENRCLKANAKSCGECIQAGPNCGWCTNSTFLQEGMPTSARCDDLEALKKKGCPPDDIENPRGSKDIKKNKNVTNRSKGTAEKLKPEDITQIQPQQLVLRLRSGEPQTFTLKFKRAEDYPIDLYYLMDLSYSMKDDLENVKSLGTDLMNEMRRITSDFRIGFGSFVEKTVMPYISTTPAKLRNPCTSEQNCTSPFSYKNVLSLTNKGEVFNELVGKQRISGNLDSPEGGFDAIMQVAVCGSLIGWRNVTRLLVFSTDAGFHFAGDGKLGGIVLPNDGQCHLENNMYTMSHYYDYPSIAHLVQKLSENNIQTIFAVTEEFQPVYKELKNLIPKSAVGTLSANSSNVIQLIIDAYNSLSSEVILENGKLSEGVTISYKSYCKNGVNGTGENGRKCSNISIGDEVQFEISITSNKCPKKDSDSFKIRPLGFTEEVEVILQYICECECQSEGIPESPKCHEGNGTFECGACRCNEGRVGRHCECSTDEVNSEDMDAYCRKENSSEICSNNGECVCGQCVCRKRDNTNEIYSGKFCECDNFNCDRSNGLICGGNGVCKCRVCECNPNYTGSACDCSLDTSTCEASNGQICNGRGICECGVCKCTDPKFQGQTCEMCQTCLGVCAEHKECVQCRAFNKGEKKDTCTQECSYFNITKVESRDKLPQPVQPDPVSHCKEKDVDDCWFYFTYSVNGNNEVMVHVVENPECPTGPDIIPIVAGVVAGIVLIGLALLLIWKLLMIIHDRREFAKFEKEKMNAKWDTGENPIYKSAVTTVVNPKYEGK
- assay summary: In vitro binding inhibition of 51Cr-labeled Jurkat cells to solid phase-bound CS-1 compound (SEQ ID NO:1)
- Format: cell-based
- Set-up: inflammatory cells that contain the VLA-4 receptor [Jurkat cells; host or cells: Jurkat (human T lymphoblastic line)
Square brackets hold non-standard residues; d marks the D form. Peptide text beside a SMILES is read from it. * marks the point of attachment. Quinoline3carbonyl = O=C(c1cnc2ccccc2c1)*; Acetyl(3-pyridyl) = O=C(Cc1cccnc1)*; Octanoyl = CCCCCCCC(=O)*
Exercise: state measured Relative Potency for each of the molecules provided.
Could you respond with only the numeric value?

[Q] Look up Relative Potency: "NC(=O)[C@H]1CCCN1C(=O)[C@H](Cc1ccccc1)NC(=O)[C@H](CC(=O)O)NC(=O)CC12CC3CC(CC(C3)C1)C2"
[A] 0

[Q] Also need CC(C)C[C@H](NC(=O)c1cnc2ccccc2c1)C(=O)N[C@@H](CC(=O)O)C(=O)N[C@@H](Cc1ccccc1)C(=O)N1CCC[C@@H]1C(N)=O [951.05] (Quinoline3carbonyl-LDF[dP]-NH2) , thanks.
[A] 56.3

[Q] Also need CC(C)C[C@H](NC(=O)Cc1cccnc1)C(=O)N[C@@H](CC(=O)O)C(=O)N[C@@H](Cc1ccccc1)C(=O)N1CCC[C@@H]1C(N)=O [951.22] ({Acetyl(3-pyridyl)}-LDF[dP]-NH2) , thanks.
[A] 387

[Q] Also need CC[C@H](C)[C@H](N)C(=O)N[C@@H](CC(C)C)C(=O)N[C@@H](CC(=O)O)C(=O)N[C@@H](Cc1ccccc1)C(=O)N1CCC[C@H]1C(N)=O [926.12] (H-ILDFP-NH2) , thanks.
[A] 1.99

[Q] Also need CC(C)C[C@H](NC(=O)[C@@H]1CCCN1)C(=O)N[C@@H](CC(=O)O)C(=O)N[C@@H](Cc1ccccc1)C(=O)N1CCC[C@@H]1C(N)=O [951.12] (H-PLDF[dP]-NH2) , thanks.
[A] 61.8

[Q] Also need CCCCCCCC(=O)N[C@@H](CC(=O)O)C(=O)N[C@@H](Cc1ccccc1)C(=O)N1CCC[C@@H]1C(N)=O [1056.12] (Octanoyl-Asp-Phe-[dP]-NH2) , thanks.
[A] 0

[Q] Also need "CC(C)CN(CCCc1ccccc1)C(=O)N[C@@H](CC(=O)O)C(=O)N[C@@H](Cc1ccccc1)C(=O)N1CCCCC1" , thanks.
[A] 0

[Q] Also need "CC(C)C[C@H](NC(=O)c1ccc2ccccc2c1)C(=O)N[C@@H](CC(=O)O)C(=O)N[C@H](C(=O)N1CCC[C@@H]1C(N)=O)C(C)C" , thanks.
[A] 2.5
